Biological target: T1, Peptide 4: Biotin-AGGGGSGGGGSGGGGSAAA-Tyr-acid (N-terminal biotin; C-terminal acid)
T1 construct: control peptide without PC
T1 peptide: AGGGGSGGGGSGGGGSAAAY
Experiment: scFv ELISA
observable: OD450 (OD450)

PcOxP_DB03_E08 (scFv, V domains shown, scFv in periplasmic extract) VH: EVQLLESGGGLVQPGGSLRLSCAASGFTFSSFYMEWVRQAPGKGLEWVAASRNAANDYTTEYADSVKGRFTISRDNSKNTLYLQMNSLRAEDTAVYYCARDYYGSSYWYFDLWGQGTLVTVSS VL: DIQMTQSPSSLSASVGDRVTITCTASESLYSSKHKVHYLAWYQQKPGKAPKLLIYGASNRYIGVPSRFSGSGSGTDFTLTISSLQPEDFATYYCAQFYFYPLTFGGGTKVEIK    0.05
PcOxP_DB01_G12 (scFv, V domains shown, scFv in periplasmic extract) VH: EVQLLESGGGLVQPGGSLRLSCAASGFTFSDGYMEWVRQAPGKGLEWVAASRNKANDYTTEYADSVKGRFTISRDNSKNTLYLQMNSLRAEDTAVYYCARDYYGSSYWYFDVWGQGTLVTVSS VL: DIQMTQSPSSLSASVGDRVTITCTASESLYSSKHKVHYLAWYQQKPGKAPKLLIYGASNRYFGVPSRFSGSGSGTDFTLTISSLQPEDFATYYCAQFYSYPLTFGGGTKVEIK    0.07
PcOxP_DB01_G01 (scFv, V domains shown, scFv in periplasmic extract) VH: EVQLLESGGGLVQPGGSLRLSCAASGFTGSDFYMEWVRQAPGKGLEWVAASRNKGNSYTTEYADSVKGRFTISRDNSKNTLYLQMNSLRAEDTAVYYCARDYYGSSYWYFDVWGQGTLVTVSS VL: DIQMTQSPSSLSASVGDRVTITCTASESLYGSKHKVHYLAWYQQKPGKAPKLLIYGASNRYSGVPSRFSGSGSGTDFTLTISSLQPEDFATYYCAQFYSYPLTFGGGTKVEIK    0.06
PcOxP_DB03_E09 (scFv, V domains shown, scFv in periplasmic extract) VH: EVQLLESGGGLVQPGGSLRLSCAASGFTASDFYMEWVRQAPGKGLEWVAASRNKANDQTTEYADSVKGRFTISRDNSKNTLYLQMNSLRAEDTAVYYCARDYYGSSYWYFDSWGQGTLVTVSS VL: DIQMTQSPSSLSASVGDRVTITCTASESLYSSKHKVHYLAWYQQKPGKAPKLLIYGASNRQSGVPSRFSGSGSGTDFTLTISSLQPEDFATYYCAQFYSYPLTFGGGTKVEIK    0.05
PcOxP_DB03_D01 (scFv, V domains shown, scFv in periplasmic extract) VH: EVQLLESGGGLVQPGGSLRLSCAASGFTFSDEYMEWVRQAPGKGLEWVAASRNKANDYTTEYADSVKGRFTISRDNSKNTLYLQMNSLRAEDTAVYYCARDYYGSSYWYFDVWGQGTLVTVSS VL: DIQMTQSPSSLSASVGDRVTITCTASESLYSSKHKVHYLAWYQQKPGKAPKLLIYGASNRYIGVPSRFSGSGSGTDFTLTISSLQPEDFATYYCAQFYYYPLTFGGGTKVEIK    0.05

Reference source: patent US20250320312A1
